System: 967376-340-R-J2-PDC multicell spheroid viability;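 also: luminescence used as surrogate of cell viability; spheroids exposed to agents for 7 days before read-out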
Experiment: Anticancer human tumor 967376-340-R-J2-PDC patient-derived colon adenocarcinoma cell line growth inhibition [PI3K]
Settings: second compound 0.01 µM; first compound 0.1 µM; hits give low values
Binary label based on viability, T/C with cut-off 80%: below gives TRUE, not below gives FALSE.

// known answers, use as guide
CNC(=O)c1ccc(N2C(=S)N(c3ccc(C#N)c(C(F)(F)F)c3)C(=O)C2(C)C)cc1F + COc1c(OCCCN2CCOCC2)ccc2c3n(c(=NC(=O)c4cnc(N)nc4)nc12)CCN3 = FALSE
CC(C)n1nc(-c2ccc3oc(N)nc3c2)c2c(N)ncnc21 + COc1c(OCCCN2CCOCC2)ccc2c3n(c(=NC(=O)c4cnc(N)nc4)nc12)CCN3 = TRUE

Lab log: compare recorded viability, T/C with 80%; is it strictly lower for CC(Cn1ccc(-c2ccc(C#N)c(Cl)c2)n1)NC(=O)c1cc(C(C)O)[nH]n1 (configuration not stated) + COc1c(OCCCN2CCOCC2)ccc2c3n(c(=NC(=O)c4cnc(N)nc4)nc12)CCN3 ? TRUE

Please indicate whether the reported viability, T/C of Cn1ncc(Cl)c1-c1cc(C(=O)NC(CN)Cc2cccc(F)c2)sc1Cl (configuration not stated) + CC(Nc1ccc2c(c1)OCCn1cc(N3C(=O)OCC3C(F)F)nc1-2)C(N)=O is strictly below 80%. FALSE

Is viability, T/C of Cn1nccc1Nc1nccc(-c2ccn(C(CO)c3ccc(Cl)c(F)c3)c(=O)c2)n1 (configuration not stated) + CC(Nc1ccc2c(c1)OCCn1cc(N3C(=O)OCC3C(F)F)nc1-2)C(N)=O strictly below 80%? TRUE

Is 80% strictly greater than the compound's reported viability, T/C? compound: CNC(=O)c1ccc(N2C(=S)N(c3ccc(C#N)c(C(F)(F)F)c3)C(=O)C2(C)C)cc1F + CC(Nc1ccc2c(c1)OCCn1cc(N3C(=O)OCC3C(F)F)nc1-2)C(N)=O FALSE
